Data provenance: ChEMBL document CHEMBL1153656

- Species: Rattus norvegicus
- procedure.summary: The concentration of test substance producing half maximal reduction of the contraction evoked by 20 mM KCI in rat hepatic portal veins.
- Type: functional
- condition.description: Rattus norvegicus
pIC50: −log10 of the molar value.
experimental.endpoint: pIC50

The cases that follow already have their pIC50 on record.
Which value of pIC50 has been reported for `CC1(C)C[C@H](N2CCCC2=O)c2cc(C#N)ccc2O1` in the records?
5.94

What do you have for `CC1(C)Oc2ccc(C#N)cc2[C@@H](c2cccc[n+]2[O-])[C@@H]1O` ?
7.00

What do you have for `CC1(C)C[C@@H](N2CCCC2=O)c2cc(C#N)ccc2O1` ?
6.28

A: CC1(C)Oc2ccc(C#N)cc2[C@H](c2cccc[n+]2[O-])[C@H]1O
B: CC1(C)C[C@@H](c2cccc[n+]2[O-])c2cc(C#N)ccc2O1
C: CC1(C)C[C@H](c2cccc[n+]2[O-])c2cc(C#N)ccc2O1
Form: Sort by [pIC50] Order [ ascending ] Rank the items, then write their labels in that order.
A, C, B
(A: 5.92, C: 6.68, B: 7.12)
